# measurement_target: CYP3A4 (Homo sapiens, UniProt P08684)
# Construct: incubated with human liver microsomes (mixed gender, pool of 50 donors, 0.1 mg/mL); from tissue; host or cells: human liver microsomes, pool of 50 donors
# Sequence (P08684 whole entry): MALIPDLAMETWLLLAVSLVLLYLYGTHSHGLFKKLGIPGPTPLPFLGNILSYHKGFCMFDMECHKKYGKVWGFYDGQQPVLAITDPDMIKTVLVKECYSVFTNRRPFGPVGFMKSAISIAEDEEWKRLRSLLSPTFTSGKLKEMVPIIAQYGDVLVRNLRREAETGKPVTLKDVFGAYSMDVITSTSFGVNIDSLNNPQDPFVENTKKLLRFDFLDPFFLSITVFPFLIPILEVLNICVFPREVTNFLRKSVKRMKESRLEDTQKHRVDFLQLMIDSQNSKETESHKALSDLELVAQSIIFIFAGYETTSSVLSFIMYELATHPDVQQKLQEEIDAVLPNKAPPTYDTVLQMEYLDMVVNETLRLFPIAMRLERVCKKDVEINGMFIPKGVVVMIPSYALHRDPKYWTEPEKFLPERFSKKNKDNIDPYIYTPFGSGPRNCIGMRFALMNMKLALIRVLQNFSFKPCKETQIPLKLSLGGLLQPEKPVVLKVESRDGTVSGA
# experimental_protocol: CYP450 inhibition in human liver microsomes, CYP3A4
# Assay type: in vitro ADME
# condition_context: both sexes, liver microsomes, pH 7.4, probe midazolam, 0.1 μM, Exp. 1, read-out: CYP3A4 (midazolam hydroxylase) % of control (Exp. 1)
readout_name: activity at 0.1 µM (%)
// units = %; emit number, no label

Q: I would be grateful if you could share the reported activity at 0.1 µM for COc1ccc2ncc(F)c(CC[C@@]3(O)CO[C@@H]4[C@@H](NCc5cc6c(cn5)OCCO6)CO[C@@H]43)c2n1 .
Result: 116

----------
Consider the following molecules; for each one, report its pIC50.
# measurement_target: TopoIV from S. aureus (Staphylococcus aureus)
# Sequence (P0C1S7 whole entry): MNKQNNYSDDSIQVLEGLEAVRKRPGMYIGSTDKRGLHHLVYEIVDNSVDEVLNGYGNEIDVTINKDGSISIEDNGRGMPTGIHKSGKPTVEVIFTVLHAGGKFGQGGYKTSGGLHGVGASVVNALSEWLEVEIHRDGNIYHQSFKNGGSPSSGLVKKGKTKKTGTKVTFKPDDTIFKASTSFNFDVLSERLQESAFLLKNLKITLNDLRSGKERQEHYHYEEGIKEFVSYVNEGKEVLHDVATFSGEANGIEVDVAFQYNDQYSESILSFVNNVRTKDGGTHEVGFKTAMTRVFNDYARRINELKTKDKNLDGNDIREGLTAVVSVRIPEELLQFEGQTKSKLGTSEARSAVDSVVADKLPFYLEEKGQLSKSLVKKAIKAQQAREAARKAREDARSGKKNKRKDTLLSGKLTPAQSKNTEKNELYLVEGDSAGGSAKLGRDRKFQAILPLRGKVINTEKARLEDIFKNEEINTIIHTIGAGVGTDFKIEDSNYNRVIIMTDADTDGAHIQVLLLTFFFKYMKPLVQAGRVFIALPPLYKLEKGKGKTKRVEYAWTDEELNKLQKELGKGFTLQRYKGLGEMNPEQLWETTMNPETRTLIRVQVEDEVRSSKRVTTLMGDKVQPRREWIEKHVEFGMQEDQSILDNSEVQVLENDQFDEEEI
# Sequence (P0C1U9 whole entry): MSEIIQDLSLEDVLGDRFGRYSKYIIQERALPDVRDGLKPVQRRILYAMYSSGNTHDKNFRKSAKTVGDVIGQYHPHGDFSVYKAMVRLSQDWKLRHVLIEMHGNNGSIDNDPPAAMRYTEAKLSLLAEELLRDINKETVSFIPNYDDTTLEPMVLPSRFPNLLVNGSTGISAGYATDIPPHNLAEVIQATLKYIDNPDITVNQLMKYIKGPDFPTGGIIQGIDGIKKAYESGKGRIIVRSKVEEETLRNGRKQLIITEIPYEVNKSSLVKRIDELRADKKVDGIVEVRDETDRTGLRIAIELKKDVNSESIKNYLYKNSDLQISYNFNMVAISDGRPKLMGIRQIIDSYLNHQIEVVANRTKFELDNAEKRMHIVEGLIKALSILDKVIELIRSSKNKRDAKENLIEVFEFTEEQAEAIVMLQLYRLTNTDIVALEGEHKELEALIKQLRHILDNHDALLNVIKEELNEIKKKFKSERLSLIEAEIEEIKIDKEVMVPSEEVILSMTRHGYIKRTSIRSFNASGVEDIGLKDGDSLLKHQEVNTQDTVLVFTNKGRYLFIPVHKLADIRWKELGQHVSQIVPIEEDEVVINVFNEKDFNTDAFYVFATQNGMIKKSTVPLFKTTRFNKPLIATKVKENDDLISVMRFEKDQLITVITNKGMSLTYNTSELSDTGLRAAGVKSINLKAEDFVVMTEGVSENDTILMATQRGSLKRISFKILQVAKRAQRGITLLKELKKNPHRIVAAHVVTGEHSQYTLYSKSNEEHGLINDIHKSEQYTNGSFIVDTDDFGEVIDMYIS
# experimental_protocol: biochemical
# Assay type: biochemical
# condition_context: S. aureus TopoIV; read-out: TopoIV IC50
Scale note: pIC50 = -log10(concentration in M).

Q: # query: pIC50 | item COc1ccc2ncc(F)c(CC[C@@]3(O)CO[C@@H]4[C@@H](NCc5ccc(C)cc5)CO[C@@H]43)c2n1 | system: TopoIV from S. aureus (Staphylococcus aureus)
Result: 5.12

Q: What about COc1ccc2ncc(F)c(CC[C@@]3(O)CO[C@@H]4[C@@H](NCc5ccc(Cl)c(Cl)c5)CO[C@@H]43)c2n1 ?
Result: 5.54

Q: Let us now turn to COc1ccc2ncc(F)c(CCC3OCC(NCc4ccc5c(c4)OCCO5)CO3)c2n1 (stereo not drawn)
Result: 6.00

----------
Can you tell me pIC50 for the items I'm about to list?
# measurement_target: S. aureus DNA gyrase (Staphylococcus aureus, UniProt P20831)
# Sequence (P0A0K8 whole entry): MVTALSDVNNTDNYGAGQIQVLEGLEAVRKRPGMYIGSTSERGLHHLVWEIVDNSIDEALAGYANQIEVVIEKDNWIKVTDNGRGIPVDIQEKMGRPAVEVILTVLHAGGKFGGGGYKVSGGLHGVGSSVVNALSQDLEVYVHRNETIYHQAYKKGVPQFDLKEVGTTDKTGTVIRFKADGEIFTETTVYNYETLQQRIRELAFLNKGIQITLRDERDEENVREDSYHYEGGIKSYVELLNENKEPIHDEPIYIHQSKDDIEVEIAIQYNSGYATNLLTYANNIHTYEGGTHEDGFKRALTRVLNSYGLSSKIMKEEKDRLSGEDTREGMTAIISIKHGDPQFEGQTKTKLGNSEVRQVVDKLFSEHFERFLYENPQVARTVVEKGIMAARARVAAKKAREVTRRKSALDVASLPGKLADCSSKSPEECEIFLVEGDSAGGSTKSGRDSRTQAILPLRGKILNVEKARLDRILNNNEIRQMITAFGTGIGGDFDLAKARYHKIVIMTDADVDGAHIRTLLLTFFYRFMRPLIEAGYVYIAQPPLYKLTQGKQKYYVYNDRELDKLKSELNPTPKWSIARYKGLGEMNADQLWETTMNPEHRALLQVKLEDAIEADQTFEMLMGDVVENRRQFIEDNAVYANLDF
# Sequence (P20831 whole entry): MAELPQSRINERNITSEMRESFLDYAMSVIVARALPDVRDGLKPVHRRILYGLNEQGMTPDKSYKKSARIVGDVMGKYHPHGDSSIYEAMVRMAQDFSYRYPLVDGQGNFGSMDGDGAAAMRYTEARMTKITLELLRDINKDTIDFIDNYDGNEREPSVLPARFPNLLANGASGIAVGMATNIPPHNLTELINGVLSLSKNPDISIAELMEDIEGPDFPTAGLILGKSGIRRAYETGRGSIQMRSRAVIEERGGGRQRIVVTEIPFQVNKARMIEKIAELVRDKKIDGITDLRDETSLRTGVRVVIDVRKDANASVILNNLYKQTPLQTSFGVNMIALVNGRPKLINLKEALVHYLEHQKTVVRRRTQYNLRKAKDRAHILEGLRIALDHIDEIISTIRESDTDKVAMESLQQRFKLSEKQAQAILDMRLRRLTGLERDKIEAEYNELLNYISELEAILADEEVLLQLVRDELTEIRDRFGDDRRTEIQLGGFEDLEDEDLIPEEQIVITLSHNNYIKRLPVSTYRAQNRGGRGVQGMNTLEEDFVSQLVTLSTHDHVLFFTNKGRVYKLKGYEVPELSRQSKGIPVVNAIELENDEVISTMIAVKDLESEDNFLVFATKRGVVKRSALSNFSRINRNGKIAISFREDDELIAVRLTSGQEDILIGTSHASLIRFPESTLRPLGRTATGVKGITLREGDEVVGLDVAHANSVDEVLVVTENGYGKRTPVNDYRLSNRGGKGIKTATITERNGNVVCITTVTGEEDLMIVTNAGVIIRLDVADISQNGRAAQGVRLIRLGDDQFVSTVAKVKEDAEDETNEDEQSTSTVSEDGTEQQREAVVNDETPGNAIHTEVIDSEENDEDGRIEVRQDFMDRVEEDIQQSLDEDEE
# experimental_protocol: Inhibition of DNA gyrase, biochemical assay (Inspiralis)
# condition_context: S. aureus DNA gyrase; Inspiralis, Ltd.; read-out: Gyrase IC50
Recall that pIC50 is obtained by taking minus log10 of the concentration measured in molar.

Q: Bench note: what pIC50 did COc1ccc2ncc(F)c(CC[C@@]3(O)CO[C@@H]4[C@@H](NCc5cc6c(cn5)OCCO6)CO[C@@H]43)c2n1 [Compound 6] show?
Result: 6.28

Q: Ok, now COc1ccc2ncc(F)c(CC[C@@]3(O)CO[C@@H]4[C@@H](NCc5ccc(Cl)c(Cl)c5)CO[C@@H]43)c2n1 [Compound 26]
Result: 6.70

Q: Could you do the same for COc1ccc2ncc(F)c(CC[C@@]3(O)CO[C@@H]4[C@@H](NCc5ccc(C)cc5)CO[C@@H]43)c2n1 [Compound 25] , please?
Result: 6.74

Q: What do you get for COc1ccc2ncc(F)c(CCC3OCC(NCc4ccc5c(c4)OCCO5)CO3)c2n1 (stereo not shown) [Compound 27] ?
Result: 7.52

----------
# measurement_target: CYP3A4 (Homo sapiens, UniProt P08684)
# Construct: incubated with human liver microsomes (mixed gender, pool of 50 donors, 0.1 mg/mL); from tissue; host or cells: human liver microsomes, pool of 50 donors
# experimental_protocol: CYP450 inhibition in human liver microsomes, CYP3A4
# Type: in vitro ADME
# condition_context: both sexes, human liver microsomes, pH 7.4, probe midazolam (midazolam hydroxylase activity), 3 μM, Exp. 3, read-out: CYP3A4 (midazolam hydroxylase) % of control (Exp. 3)
readout_name: activity at 3 µM (%)
Provide only the numeric value, understood in %.

Q: I would be grateful if you could share the reported activity at 3 µM for COc1ccc2ncc(F)c(CC[C@@]3(O)CO[C@@H]4[C@@H](NCc5cc6c(cn5)OCCO6)CO[C@@H]43)c2n1 .
Result: 60.4

----------
# experimental_protocol: in vitro
# Format: in vitro ADME
# condition_context: pH 7.4; mouse plasma; 10 μM, equilibrium dialysis
# Method: In this assay an equilibrium dialysis technique was used to separate unbound test compound from compound bound to proteins. The plasma was spiked with the test compound at 10 μM with a final DMSO concentration of 1%. […] Recovered samples were analyzed using LC-MS.
readout_name: fraction unbound
Form rule: numeric answer, no unit written next to it.

Q: I have this molecule here, COc1ccc2ncc(F)c(CC[C@@]3(O)CO[C@@H]4[C@@H](NCc5cc6c(cn5)OCCO6)CO[C@@H]43)c2n1 , and I need its recorded fraction unbound.
Result: 0.047

----------
For each entry below, report its IC50 value.
# measurement_target: S. aureus DNA gyrase (Staphylococcus aureus, UniProt P20831)
# experimental_protocol: Inhibition of DNA gyrase, biochemical assay (Inspiralis)
Give just the number in nM; leave the unit off.

Q: // IC50 lookup, key: COc1ccc2ncc(F)c(CC[C@@]3(O)CO[C@@H]4[C@@H](NCc5ccc6c(n5)NC(=O)CO6)CO[C@@H]43)c2n1
Result: 540

Q: Next: COc1ccc2ncc(F)c(CC[C@@]3(O)CO[C@@H]4[C@@H](NCc5ccc6c(c5)OCCO6)CO[C@@H]43)c2n1
Result: 200

----------
# System: USA300 isolate of MRSA
# experimental_protocol: MIC, CLSI broth microdilution, USA300 MRSA
# Format: cell-based
# condition_context: Staphylococcus aureus; CLSI broth microdilution; ciprofloxacin-resistant MRSA; read-out: MIC USA300
readout_name: MIC (µg/mL)
Report the value in µg/mL with no unit label.

Q: Recorded MIC of COc1ccc2ncc(F)c(CC[C@@]3(O)CO[C@@H]4[C@@H](NCc5cc6c(cn5)OCCO6)CO[C@@H]43)c2n1 [Compound 6] , please.
Result: 2

Q: Then COc1ccc2nccc(CC[C@@]3(O)CO[C@@H]4[C@@H](NCc5ccc6c(c5)OCCO6)CO[C@@H]43)c2c1 [Compound 21] ?
Result: 16

Q: Next: COc1ccc2ncc(F)c(CC[C@@]3(O)CO[C@@H]4[C@@H](NCc5ccc(Cl)c(Cl)c5)CO[C@@H]43)c2n1 [Compound 26]
Result: 0.5

Q: Try the compound COc1ccc2ncc(F)c(CC[C@@]3(O)CO[C@@H]4[C@@H](NCc5ccc(C)cc5)CO[C@@H]43)c2n1 [Compound 25]
Result: 2

----------
# measurement_target: CYP3A4 (Homo sapiens, UniProt P08684)
# Construct: incubated with human liver microsomes (mixed gender, pool of 50 donors, 0.1 mg/mL); from tissue; host or cells: human liver microsomes, pool of 50 donors
# experimental_protocol: CYP450 inhibition in human liver microsomes, CYP3A4
# Format: in vitro ADME
# condition_context: both sexes, human liver microsomes, pH 7.4, probe midazolam (midazolam hydroxylase activity), 3 μM, Exp. 2, read-out: CYP3A4 (midazolam hydroxylase) % of control (Exp. 2)
readout_name: activity at 3 µM (%)
State the answer as a number, implicitly in %.

Q: Request the reported activity at 3 µM associated with COc1ccc2ncc(F)c(CC[C@@]3(O)CO[C@@H]4[C@@H](NCc5cc6c(cn5)OCCO6)CO[C@@H]43)c2n1
Result: 77.2

----------
# experimental_protocol: in vitro
# Assay type: in vitro ADME
# condition_context: pH 7.4; human microsomes; 1 μM; read-out: microsomal half-life
readout_name: half-life (min)
Reply numerically in min, unit not repeated.

Q: # lookup: half-life of COc1ccc2ncc(F)c(CC[C@@]3(O)CO[C@@H]4[C@@H](NCc5cc6c(cn5)OCCO6)CO[C@@H]43)c2n1
Result: 6

----------
# measurement_target: CYP3A4 (Homo sapiens, UniProt P08684)
# Construct: incubated with human liver microsomes (mixed gender, pool of 50 donors, 0.1 mg/mL); from tissue; host or cells: human liver microsomes, pool of 50 donors
# experimental_protocol: CYP450 inhibition in human liver microsomes, CYP3A4
# Type: in vitro ADME
# condition_context: both sexes, liver microsomes, pH 7.4, probe midazolam, 1 μM, Exp. 2, read-out: CYP3A4 (midazolam hydroxylase) % of control (Exp. 2)
readout_name: activity at 1 µM (%)
Write the answer as a number in %, unit excluded.

Q: Value lookup for activity at 1 µM; key = COc1ccc2ncc(F)c(CC[C@@]3(O)CO[C@@H]4[C@@H](NCc5cc6c(cn5)OCCO6)CO[C@@H]43)c2n1
Result: 89.8

----------
# experimental_protocol: in vitro
# Assay type: in vitro ADME
# condition_context: pH 7.4; mouse microsomes; 1 μM; read-out: microsomal half-life
# Protocol: The test compound at 1 μM was pre-incubated with pooled liver microsomes in phosphate buffer (pH 7.4) for 5 minutes in a 37° C. shaking water bath. […] Samples were centrifuged, and supernatants analyzed by LCMS. The half-life was calculated from the slope of the initial linear range of the logarithmic curve of compound remaining %) vs. time, assuming first order kinetics. In addition, the intrinsic clearance (Clint) was calculated from the half-life.
readout_name: half-life (min)
Note: unit min is implicit; provide only the numeric part.

Q: // query half-life value for entry COc1ccc2ncc(F)c(CC[C@@]3(O)CO[C@@H]4[C@@H](NCc5cc6c(cn5)OCCO6)CO[C@@H]43)c2n1
Result: 3
